In this section, each of the compounds is paired with its reported IC50.
Target: UniProt:P29274
Sequence (P29274 whole entry): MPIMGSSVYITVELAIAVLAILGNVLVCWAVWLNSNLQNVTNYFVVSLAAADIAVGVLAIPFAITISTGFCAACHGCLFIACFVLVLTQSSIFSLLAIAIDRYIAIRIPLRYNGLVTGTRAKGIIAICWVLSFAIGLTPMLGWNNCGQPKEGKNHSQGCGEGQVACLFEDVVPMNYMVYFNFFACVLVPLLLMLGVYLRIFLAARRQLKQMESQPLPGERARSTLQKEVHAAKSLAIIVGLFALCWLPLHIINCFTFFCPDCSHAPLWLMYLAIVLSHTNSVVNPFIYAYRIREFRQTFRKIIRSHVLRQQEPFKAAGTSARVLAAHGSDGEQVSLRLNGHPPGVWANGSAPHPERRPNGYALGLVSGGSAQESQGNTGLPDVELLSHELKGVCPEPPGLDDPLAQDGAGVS
Assay: A2A binding affinity using SPA, Method (B)
Details: [3H] SCH58261, A2A receptor-expressing membranes
observed property: IC50 (nM)

COc1cccc2c1nc(N)n1nc(CSCc3ccc(F)cc3)nc21    7.3
COc1cccc2c1nc(N)n1nc(CO[C@H](C)c3ccc(F)cc3)nc21    8.3
COc1cccc2c1nc(N)n1nc(COCc3ccsc3)nc21    2.7
COc1cccc2c1nc(N)n1nc(COCC(F)F)nc21    4.4
COc1cccc2c1nc(N)n1nc(COCc3csc4ccccc34)nc21    2.9
CCC#CCOCc1nc2c3cccc(OC)c3nc(N)n2n1    6.1
COc1cccc2c1nc(N)n1nc(CCCCl)nc21    15.5
COc1cccc2c1nc(N)n1nc(CO[C@@H](C)c3ccc(F)cc3)nc21    4.6
COc1cccc2c1nc(N)n1nc(COCc3ccc(F)cc3)nc21    4.7

Origin of measurements: patent US20240076297A1
